Tested on: Pseudomonas aeruginosa ATCC 27853
experimental protocol: MBEC assay, biofilm elimination, MBEC bioFILM PA panel
Format: cell-based
Set-up: unit not given here
condition details: antibiotic alone
Listing of entries alongside the reported MBEC-Biofilm Elimination, Without compound 7.
value kind: MBEC-Biofilm Elimination, Without compound 7

>>> result("O=C(N[C@H](CO)[C@H](O)c1ccc([N+](=O)[O-])cc1)C(Cl)Cl [C, chloramphenicol]")
">4"
>>> result("C[C@@H](O)[C@H]1C(=O)N2C(C(=O)O)=C(S[C@@H]3CN[C@H](C(=O)N(C)C)C3)[C@H](C)[C@H]12 [MER, meropenem]")
">1"
>>> result("CO/N=C(\\C(=O)N[C@@H]1C(=O)N2C(C(=O)[O-])=C(C[N+]3(C)CCCC3)CS[C@H]12)c1csc(N)n1 [CPE, cefepime]")
">4"
>>> result("C[C@H]1[C@H](NC(=O)/C(=N\\OC(C)(C)C(=O)O)c2csc(N)n2)C(=O)N1S(=O)(=O)O [AZT, astreonam]")
">4"
>>> result("NCC[C@H](O)C(=O)N[C@@H]1C[C@H](N)[C@@H](O[C@H]2O[C@H](CN)[C@@H](O)[C@H](O)[C@H]2O)[C@H](O)[C@H]1O[C@H]1O[C@H](CO)[C@@H](O)[C@H](N)[C@H]1O [AK, amikacin]")
">8"
>>> result("O=C(O)c1cn(C2CC2)c2cc(N3CCNCC3)c(F)cc2c1=O [CP, ciprofloxacin]")
">0.5"
>>> result("NC[C@H]1O[C@H](O[C@H]2[C@H](O)[C@@H](O[C@H]3O[C@H](CO)[C@@H](O)[C@H](N)[C@H]3O)[C@H](N)C[C@@H]2N)[C@H](N)C[C@@H]1O [TO, tobramycin]")
">2"
>>> result("CC(C)(O/N=C(\\C(=O)N[C@@H]1C(=O)N2C(C(=O)[O-])=C(C[n+]3ccccc3)CS[C@H]12)c1csc(N)n1)C(=O)O [CAZ, ceftazidime]")
">4"

* * *

Tested on: Pseudomonas aeruginosa ATCC 27853
experimental protocol: MBEC assay, biofilm inhibition (prevention of biofilm formation), MBEC bioFILM PA panel
Format: cell-based
condition details: with 0.05% compound 3 in 5% EtOH/PBS
value kind: MBEC-Biofilm Inhibition, With 0.05% compound 3 in 5% EtOH/PBS

>>> result("CC(C)(O/N=C(\\C(=O)N[C@@H]1C(=O)N2C(C(=O)[O-])=C(C[n+]3ccccc3)CS[C@H]12)c1csc(N)n1)C(=O)O [CAZ, ceftazidime]")
">4"
>>> result("NCC[C@H](O)C(=O)N[C@@H]1C[C@H](N)[C@@H](O[C@H]2O[C@H](CN)[C@@H](O)[C@H](O)[C@H]2O)[C@H](O)[C@H]1O[C@H]1O[C@H](CO)[C@@H](O)[C@H](N)[C@H]1O [AK, amikacin]")
">8"
>>> result("NC[C@H]1O[C@H](O[C@H]2[C@H](O)[C@@H](O[C@H]3O[C@H](CO)[C@@H](O)[C@H](N)[C@H]3O)[C@H](N)C[C@@H]2N)[C@H](N)C[C@@H]1O [TO, tobramycin]")
">2"
>>> result("C[C@H]1[C@H](NC(=O)/C(=N\\OC(C)(C)C(=O)O)c2csc(N)n2)C(=O)N1S(=O)(=O)O [AZT, astreonam]")
">4"
>>> result("O=C(O)c1cn(C2CC2)c2cc(N3CCNCC3)c(F)cc2c1=O [CP, ciprofloxacin]")
">0.5"
>>> result("C[C@@H](O)[C@H]1C(=O)N2C(C(=O)O)=C(S[C@@H]3CN[C@H](C(=O)N(C)C)C3)[C@H](C)[C@H]12 [MER, meropenem]")
">2"
>>> result("O=C(N[C@H](CO)[C@H](O)c1ccc([N+](=O)[O-])cc1)C(Cl)Cl [C, chloramphenicol]")
">4"
>>> result("CO/N=C(\\C(=O)N[C@@H]1C(=O)N2C(C(=O)[O-])=C(C[N+]3(C)CCCC3)CS[C@H]12)c1csc(N)n1 [CPE, cefepime]")
">4"
